From: the RNAGym collection of RNA variant scans (doi:10.1021/acssynbio.7b00057)

B1: Pistol ribozyme (parent)
chain: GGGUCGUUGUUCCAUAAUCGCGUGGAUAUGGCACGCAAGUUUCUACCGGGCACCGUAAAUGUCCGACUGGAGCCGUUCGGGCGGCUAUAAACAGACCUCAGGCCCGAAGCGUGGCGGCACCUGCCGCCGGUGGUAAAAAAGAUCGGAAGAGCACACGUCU

Variants of: B1
test-method-notes: aptazyme ON/OFF ratio, guanine; higher = stronger switching; co-transcriptional cleavage with and without guanine
experimental-readout: aptazyme ON/OFF ratio
No unit in the answer, only the number.

Input: State the recorded aptazyme ON/OFF ratio for this entry: U7G G9C U10G U11C C12A C13U
Output: 1.33

Input: State the recorded aptazyme ON/OFF ratio for this entry: U7C G9U U10A U11C C12A C13U
Output: 1.23

Input: State the recorded aptazyme ON/OFF ratio for this entry: U7A U8C G9U U10G C12U
Output: 1.17

Input: State the recorded aptazyme ON/OFF ratio for this entry: U7A G9U U11A C12G
Output: 1.35

Input: State the recorded aptazyme ON/OFF ratio for this entry: U7C U8G G9C U11C C12U
Output: 1.33

Input: State the recorded aptazyme ON/OFF ratio for this entry: U7G U8G G9C U11A C12G C13U
Output: 1.2

Input: State the recorded aptazyme ON/OFF ratio for this entry: U7G U8G G9U U10C C12A C13A
Output: 1.31

Input: State the recorded aptazyme ON/OFF ratio for this entry: U7C U8C G9U U10C U11A C12G C13U
Output: 1.09

Input: State the recorded aptazyme ON/OFF ratio for this entry: U8G G9C U11C C12G C13G
Output: 1.05

Input: State the recorded aptazyme ON/OFF ratio for this entry: U7C G9U U10C U11G C12U
Output: 1.22

Input: State the recorded aptazyme ON/OFF ratio for this entry: U7C U8A G9C U10A U11A C13G
Output: 1.15

Input: State the recorded aptazyme ON/OFF ratio for this entry: U7G U8G G9U U11C C12G C13A
Output: 1.14

Input: State the recorded aptazyme ON/OFF ratio for this entry: U7C U8A G9U C12A
Output: 1.06

Input: State the recorded aptazyme ON/OFF ratio for this entry: U7G U8A U10A C12G
Output: 1.3

Input: State the recorded aptazyme ON/OFF ratio for this entry: U7C U8A G9A U10A U11G C12A C13U
Output: 1.18

Input: State the recorded aptazyme ON/OFF ratio for this entry: U7G U8C G9A U10C U11G C12U
Output: 1.37

Input: State the recorded aptazyme ON/OFF ratio for this entry: U7G U10A U11G C12G C13A
Output: 1.18

Input: State the recorded aptazyme ON/OFF ratio for this entry: U7G G9A U10G C13U
Output: 1.12

Input: State the recorded aptazyme ON/OFF ratio for this entry: U7G G9U U11A C13G
Output: 1.13

Input: State the recorded aptazyme ON/OFF ratio for this entry: U8A U11G C13U
Output: 1.04

Input: State the recorded aptazyme ON/OFF ratio for this entry: U7C U11G C13A
Output: 1.06

Input: State the recorded aptazyme ON/OFF ratio for this entry: U7C U8C U10G U11A C12G C13U
Output: 1.09

Input: State the recorded aptazyme ON/OFF ratio for this entry: U7C U8A G9U U11C C12A C13A
Output: 1.1

Input: State the recorded aptazyme ON/OFF ratio for this entry: G9A U10A U11C C12G
Output: 1.32

Input: State the recorded aptazyme ON/OFF ratio for this entry: U7A U8A G9U U10C C12G C13G
Output: 1.35

Input: State the recorded aptazyme ON/OFF ratio for this entry: U7A G9U U10A U11G C12G C13G
Output: 1.2

Input: State the recorded aptazyme ON/OFF ratio for this entry: U7C U8A U10G U11A C12A C13U
Output: 1.24

Input: State the recorded aptazyme ON/OFF ratio for this entry: U7C U8A G9U U11G C12A
Output: 1.09

Input: State the recorded aptazyme ON/OFF ratio for this entry: U7G U8A U10G U11C C12G C13U
Output: 1.25

Input: State the recorded aptazyme ON/OFF ratio for this entry: U7A U8G U10A U11G C13U
Output: 1.29

Input: State the recorded aptazyme ON/OFF ratio for this entry: U7G U10A U11A C12A C13U
Output: 1.07

Input: State the recorded aptazyme ON/OFF ratio for this entry: U7G U8A G9U U10C U11G C12U
Output: 1.35

Input: State the recorded aptazyme ON/OFF ratio for this entry: U7A U8A G9C U11A C12U C13U
Output: 1.2
